B1: OR4K15 (parent)
chain: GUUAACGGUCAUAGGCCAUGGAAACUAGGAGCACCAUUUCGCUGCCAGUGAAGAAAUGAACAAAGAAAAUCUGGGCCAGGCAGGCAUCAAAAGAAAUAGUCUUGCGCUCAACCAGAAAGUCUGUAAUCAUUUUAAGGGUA

# Variants of: B1
# measurementProtocol: self-cleavage, relative activity (ratio to wild type); higher = more cleavage; in vitro, sequencing; the parent is a self-cleaving ribozyme
Label not met if self-cleavage falls below 1; label met in every other case.

Please review the following examples before continuing.
# sequenceInput, discreteLabel
rows = [
    ("GUUAACGGUCAUAGGCCAUGGAAACUAGGAGCACCAUUUCGCUGCCAGUGAAGAAAUGAACAAAGAGAAUCUGGGCCAGGCAGGCAUCAAAAGAAAUAGUCUUGCGCACAACCAGAAAGUCUGUAAUCAUUUUAAGGGUA", "not met"),
    ("GUUAACGGUCAUAGGCCAUGGAAACUAGGAGCACCACUUCGCUGCCAGUGAAGAAAUGAACAAAGAAUAUCUGGGCCAGGCAGGCAUCAAAAGAAAUAGUCUUGCGCUCAACCAGAAAGUCUGUAAUCAUUUUAAGGGUA", "met"),
    ("GUUAACGGUCAUAGGCCAGGGAGACUAGGAGCACCAUUUCGCUGCCAGUGAAGAAAUGAACAAAGAAAAUCUGGGCCAGGCAGGCAUCAAAAGAAAUAGUCUUGCGCUCAACCAGAAAGUCUGUAAUCAUUUUAAGGGUA", "not met"),
    ("GUUAACGGUCAUAGGCCAUGGAAACUAGGAGCACCAUUUCGCUGCCAGUGAAGAAAUGAACAAAGAGAAUCUGGGCCAGGCAGGCAUCUAAAGAAAUAGUCUUGCGCUCAACCAGAAAGUCUGUAAUCAUUUUAAGGGUA", "met"),
    ("GUUAACGGUCAUAGGGCAUGGAAACUAGGAGCACCAUUUCGCUGCCAGUGAAGGAAUGAACAAAGAAAAUCUGGGCCAGGCAGGCAUCAAAAGAAAUAGUCUUGCGCUCAACCAGAAAGUCUGUAAUCAUUUUAAGGGUA", "not met"),
]

Exercise: Does the variant `GUUAACGGUCAUAGGCCAUGGAAACUAGGAGCACCAUUUCGCUGCCAGAGAAGAAAUGAACAAAGAAAAUCUGGGCCAGGCAGGCAACAAAAGAAAUAGUCUUGCGCUCAACCAGAAAGUCUGUAAUCAUUUUAAGGGUA` have recorded self-cleavage that is 1 or more?
Key: met

Exercise: Cool, now `GUUAACGGUCAUAGGCCAUGGCAACUAGGAGCACCAUUUCGCUGCCAGUGAAGAAAUGAACAAAGAAAAUCUGGGCCAGGCAGGCAUCAAAAGAAAUAGUCUUGCGCUCAACCAGAAAGUCUGUAAUCAUUUUAAGGGUA`
Key: met

Exercise: Cool, now `GUUAACGGUCAUAGGCCAUGGAAACUAGGAGCACCAUUUCGCUGCCAGUGAAGAAAUGAACAAAGAAAAUCUGGGCCAGGCAAGCAUCAAAAGAAAUAGUCUUGCGCUCAACCAGAAAGCCUGUAAUCAUUUUAAGGGUA`
Key: met

Exercise: Cool, now `GUUAACGGUCAUAGGCCACGGAAACUAGGAGCACCAUUUCGCUGCCAGUGAAGAAAUGAAUAAAGAAAAUCUGGGCCAGGCAGGCAUCAAAAGAAAUAGUCUUGCGCUCAACCAGAAAGUCUGUAAUCAUUUUAAGGGUA`
Key: met

Exercise: Cool, now `GUUAACGGUCAUAGGCCAUGGAAACUAGGAGCACCAUUUCGCUGCCAGUGAAGAAAUGAACAAAGAAAAUCUGGGCCAGGCAGGCGUCAAAAGAAAUAGUCUUGCGCUCAACCAGAAAGUCAGUAAUCAUUUUAAGGGUA`
Key: met

Exercise: Cool, now `GUUAACGGUCAUAGGCCAUGGAAACUAGGAGAACCAUUUCGCUGCCAGUGAAGAAAUGAACAAAGAAAAUCUGGGCCAGGCAGGCAUCAAAAGAAAUAGUCUUGCGCUCAACCAGAAAGUCUGUAAUCAUUCUAAGGGUA`
Key: not met
